System: LNCaP xenografts
Assay: Ex vivo biodistribution and blocking studies in mice bearing LNCaP xenografts
Conditions: 1 h after injection, unblocked
readout-kind: stomach uptake (%ID/g)

[a] C[N+](C)(Cc1cn(Cc2ccc(C(=O)NCCCC[C@H](NC(=O)N[C@@H](CCC(=O)O)C(=O)O)C(=O)O)cn2)nn1)C[B-](F)(F)F [^18F-3]
[b] O=C(O)CC[C@H](NC(=O)N[C@@H](CCCCNC(=O)[C@H](Cc1ccc2ccccc2c1)NC(=O)[C@H]1CC[C@H](CNC(=O)Cn2cc(C[n+]3ccc([B-](F)(F)F)cc3)nn2)CC1)C(=O)O)C(=O)O [^18F-6]
[c] C[N+](C)(Cc1cn(CC(=O)NC[C@H]2CC[C@H](C(=O)N[C@@H](Cc3ccc4ccccc4c3)C(=O)NCCCC[C@H](NC(=O)N[C@@H](CCC(=O)O)C(=O)O)C(=O)O)CC2)nn1)C[B-](F)(F)F [^18F-5]
[d] C[N+](C)(Cc1cn(CC(=O)NCCOCCOCCC(=O)N[C@@H](Cc2ccc3ccccc3c2)C(=O)NCCCC[C@H](NC(=O)N[C@@H](CCC(=O)O)C(=O)O)C(=O)O)nn1)C[B-](F)(F)F [^18F-7]
q: For the molecules shown above, give the order from largest stomach uptake to smallest. In your reply, arrange the labels in the requested order.
a: b, c, d, a
(b: 1.17 %ID/g, c: 0.37 %ID/g, d: 0.21 %ID/g, a: 0.08 %ID/g)
